test system: G(−) bacterial strains; assay: Dilution antimicrobial susceptibility tests (MIC, NCCLS agar dilution / broth dilution); assay type: cell-based, Gram-negative organisms; settings: strain #17 Morganella Morganii; unit assumed
readout: MIC (µg/mL)
Number only, in µg/mL; omit the unit.

Worked examples follow.
C[C@@H](O)C1C(=O)N2C(C(=O)O)=C(CN3CC[C@H](O)C3)[C@H](C)C12 (stereo partly shown) : 8
C[C@@H](O)C1C(=O)N2C(C(=O)O)=C(CN3CC[C@H](C(=O)NS(N)(=O)=O)C3)[C@H](C)C12 (stereo partly shown) : 4
C[C@@H](O)C1C(=O)N2C(C(=O)O)=C(CN3CC[C@H](C(=O)NCC(N)=O)C3)[C@H](C)C12 (stereo partly shown) : 4

For the next question, use this molecule.
Which MIC value is on record for C[C@@H](O)C1C(=O)N2C(C(=O)O)=C(CN3CC[C@H](NCC(N)=O)C3)[C@H](C)C12 (stereo partly shown) ?
8

---

system: G(−) bacterial strains; experiment: Dilution antimicrobial susceptibility tests (MIC, NCCLS agar dilution / broth dilution); assay type: cell-based, Gram-negative organisms; settings: strain #8 Enterobacter cloacae, Cf-R, B+; unit assumed
Entries and their MIC
Write down the numeric answer in µg/mL and omit the unit.

Worked cases, answers included:
C[C@@H](O)C1C(=O)N2C(C(=O)O)=C(CN3CC[C@H](C(=O)N(C)C)C3)[C@H](C)C12 (stereo partly shown) [Compound 120] : 0.5
C[C@@H](O)C1C(=O)N2C(C(=O)O)=C(CN3CC[C@H](C#N)C3)[C@H](C)C12 (stereo partly shown) [Compound 7] : 0.13
C[C@@H](O)[C@H]1C(=O)N2C(C(=O)O)=C(CN3C[C@@H](O)[C@H](NC(=N)N)C3)[C@H](C)[C@H]12 [Compound 178] : 0.25
C[C@@H](O)C1C(=O)N2C(C(=O)O)=C(CN3CC[C@H](NC(=O)CNS(N)(=O)=O)C3)[C@H](C)C12 (stereo partly shown) [Compound 163] : 0.5

Can you share its MIC? I mean this compound: C[C@@H](O)C1C(=O)N2C(C(=O)O)=C(CN3CC[C@H](NC(=N)NS(C)(=O)=O)C3)[C@H](C)C12 (stereo partly shown) [Compound 106]
1

Any idea what MIC was measured for C[C@@H](O)C1C(=O)N2C(C(=O)O)=C(CN3CC[C@H](N(C)C)C3)[C@H](C)C12 (stereo partly shown) [Compound 46] ?
0.25

Fill in the blank: the reported MIC of C[C@@H](O)C1C(=O)N2C(C(=O)O)=C(CN3CC(NC(=N)N)C3)[C@H](C)C12 (stereo partly shown) [Compound 89] is ____.
0.13

---

Below, each entry is listed alongside its reported MIC.
system: G(−) bacterial strains; experiment: Dilution antimicrobial susceptibility tests (MIC, NCCLS agar dilution / broth dilution); assay type: cell-based, Gram-negative organisms; details: strain #24 Serratia marcescens; unit assumed
Reply with just the number (in µg/mL).

CC(O)C1C(=O)N2C(C(=O)O)=C(CN3CCC(C(=N)N)C3)C(C)C12 (centres unmarked) [Compound 185a] : 0.5
C[C@@H](O)C1C(=O)N2C(C(=O)O)=C(CN3CC[C@H](C(=O)NC(=N)N)C3)[C@H](C)C12 (some centres unmarked) [Compound 143] : 2
CC(=O)NC(=N)N[C@H]1CCN(CC2=C(C(=O)O)N3C(=O)C([C@@H](C)O)C3[C@H]2C)C1 (some centres unmarked) [Compound 111] : 2
C[C@@H](O)C1C(=O)N2C(C(=O)O)=C(CN3CC[C@H](NC=N)C3)[C@H](C)C12 (some centres unmarked) [Compound 84] : 1
C[C@@H](O)C1C(=O)N2C(C(=O)O)=C(CN3CC(C(N)=O)C3)[C@H](C)C12 (some centres unmarked) [Compound 49] : 0.25

Item C[C@@H](O)C1C(=O)N2C(C(=O)O)=C(CN3CC[C@H](NCC(N)=O)C3)[C@H](C)C12 (some centres unmarked) [Compound 83] has what recorded MIC?
2

What does the data say about its MIC? Entry: C[C@@H](O)C1C(=O)N2C(C(=O)O)=C(CN3CC[C@H](C(=O)N(C)C)C3)[C@H](C)C12 (some centres unmarked) [Compound 120]
2

Consider the compound shown here: C[C@@H](O)C1C(=O)N2C(C(=O)O)=C(CN3CC[C@H](C(N)=O)C3)[C@H](C)C12 (some centres unmarked) [Compound 12] What is its recorded MIC?
1

---

system: G(−) bacterial strains; assay: Dilution antimicrobial susceptibility tests (MIC, NCCLS agar dilution / broth dilution); assay type: cell-based, Gram-negative organisms; conditions: strain #32 Pseudomonas aeruginosa, Cf-R; unit assumed
Items are presented alongside their recorded MIC.
Return type: number; implicit unit µg/mL.

C[C@@H](O)C1C(=O)N2C(C(=O)O)=C(CN3CC[C@H](NC(N)=O)C3)[C@H](C)C12 (some centres unmarked) : 16
C[C@@H](O)C1C(=O)N2C(C(=O)O)=C(CN3CC[C@H](NCC(N)=O)C3)[C@H](C)C12 (some centres unmarked) : 16
CC(=O)N[C@H]1CCN(CC2=C(C(=O)O)N3C(=O)C([C@@H](C)O)C3[C@H]2C)C1 (some centres unmarked) : 16
C[C@@H](O)C1C(=O)N2C(C(=O)O)=C(CN3CC[C@H](C#N)C3)[C@H](C)C12 (some centres unmarked) : 8

Lab note: next molecule to report on.
Report MIC for C[C@@H](O)C1C(=O)N2C(C(=O)O)=C(CN3CC[C@H](C(=O)N(C)C)C3)[C@H](C)C12 (some centres unmarked) please.
16

---

test system: G(−) bacterial strains; test: Dilution antimicrobial susceptibility tests (MIC, NCCLS agar dilution / broth dilution); format: cell-based, Gram-negative organisms; details: strain #9 Enterobacter cloacae, Cf-R; unit assumed
MIC overview
Dear colleague, please return just the value in µg/mL, with no unit written.

Please give the measured MIC for this compound: C[C@@H](O)C1C(=O)N2C(C(=O)O)=C(CN3CC(NS(N)(=O)=O)C3)[C@H](C)C12 (stereo partly drawn)
0.25

---

system: G(−) bacterial strains; assay: Dilution antimicrobial susceptibility tests (MIC, NCCLS agar dilution / broth dilution); type: cell-based, Gram-negative organisms; conditions: strain #9 Enterobacter cloacae, Cf-R; unit assumed
readout: MIC (µg/mL)
Response body: numeric value in µg/mL, unit text excluded.

Example compounds with recorded MIC:
C[C@@H](O)C1C(=O)N2C(C(=O)O)=C(CN3CC[C@H](C(=O)NS(N)(=O)=O)C3)[C@H](C)C12 (stereo partly shown) : 0.5
C[C@@H](O)C1C(=O)N2C(C(=O)O)=C(CN3CC[C@H](NC=N)C3)[C@H](C)C12 (stereo partly shown) : 0.5
C[C@@H](O)C1C(=O)N2C(C(=O)O)=C(CN3CC[C@H](C(=O)NS(C)(=O)=O)C3)[C@H](C)C12 (stereo partly shown) : 0.5
CC(O)C1C(=O)N2C(C(=O)O)=C(CN3CCC(C(=N)N)C3)C(C)C12 (stereo not shown) [Compound 185a] : 0.13
C[C@@H](O)C1C(=O)N2C(C(=O)O)=C(CN3CC[C@@H](C(N)=O)C3)[C@H](C)C12 (stereo partly shown) : 0.25
C[C@@H](O)C1C(=O)N2C(C(=O)O)=C(CN3CC[C@H](N(C)C)C3)[C@H](C)C12 (stereo partly shown) : 0.5

Shift focus to the following entry.
Could you share which MIC value was measured for C[C@@H](O)C1C(=O)N2C(C(=O)O)=C(CN3CC[C@H](C(=O)N(C)C)C3)[C@H](C)C12 (stereo partly shown) ?
1

---

system: G(−) bacterial strains; assay: Dilution antimicrobial susceptibility tests (MIC, NCCLS agar dilution / broth dilution); type: cell-based, Gram-negative organisms; conditions: strain #34 Pseudomonas aeruginosa, Gen-R; unit assumed
readout: MIC (µg/mL)
# value in µg/mL; strip the unit string

Below: 6 molecules and their reported MIC.
C[C@@H](O)C1C(=O)N2C(C(=O)O)=C(CN3CC(NC(=N)N)C3)[C@H](C)C12 (stereo partly shown) : 1
C[C@@H](O)C1C(=O)N2C(C(=O)O)=C(CN3CC[C@H](NC(=N)NS(C)(=O)=O)C3)[C@H](C)C12 (stereo partly shown) : 8
CC(O)C1C(=O)N2C(C(=O)O)=C(CN3CC(O)C(C(=N)N)C3)C(C)C12 (mixture of isomers) [Compound 185b] : 1
CNC(=O)[C@H]1CCN(CC2=C(C(=O)O)N3C(=O)C([C@@H](C)O)C3[C@H]2C)C1 (stereo partly shown) : 8
C[C@@H](O)C1C(=O)N2C(C(=O)O)=C(CN3CC[C@@H](C(N)=O)C3)[C@H](C)C12 (stereo partly shown) : 8
C[C@@H](O)C1C(=O)N2C(C(=O)O)=C(CN3CC[C@H](NC(=O)C(F)(F)F)C3)[C@H](C)C12 (stereo partly shown) : 8

Next item in the queue.
Entry under review: C[C@@H](O)C1C(=O)N2C(C(=O)O)=C(CN3CC[C@H](C(N)=O)C3)[C@H](C)C12 (stereo partly shown) . Reported MIC?
4
